The reported numbers originate from PubChem BioAssay (NCI).

Tested on: BT-549 breast
Assay: NCI-60 one-dose screen, 48 h (100 = growth as untreated, 0 = no growth, -100 = all killed)
Conditions: 10 µM unless noted
The panel holds about 83,000 compounds, 20% with a hit somewhere; the sample as a whole holds those more often. The source made the active and inactive calls. How the source made its calls: active means growth percent below 10; inactive means the rest.
Value kind: growth

Use these answered entries as a reference point.
O=C1Nc2c(ccc(Cl)c2Cl)/C1=C/c1ccccn1 :: 92.1% (inactive)
Nc1ncc(C#Cc2cncc(NC(=O)c3cccc(C(F)(F)F)c3)c2)c2cccnc12 :: 63.1% (inactive)
CN1CCN(Cc2ccc(NC(=O)c3cncc(C#Cc4cnccc4C(F)(F)F)c3)cc2C(F)(F)F)CC1 :: 91.8% (inactive)
COc1ccc2c(c1)OC1=C(C(=O)OC1)C2c1cc(OC)c(OC)c(OC)c1 (stereo unspecified) :: 34.5% (inactive)
CC(C)Sc1nc(NN)c(C#N)c(-c2ccccc2)n1 :: 79.3% (inactive)

input: Check BT-549 breast data and give growth for C#Cc1cccc(NC(=O)Nc2cccc(N=C=S)c2)c1 .
output: 102% [8.25 µM] (inactive)

input: Give growth for CC(N)C(=O)NNc1n[nH]c(=S)n1N (stereo unspecified) tested on BT-549 breast.
output: 87.1% (inactive)

* * *

Parameter growth: see the listing below.
Test system: OVCAR-3 ovarian
Assay: NCI-60 one-dose screen, 48 h (100 = growth as untreated, 0 = no growth, -100 = all killed)
Details: 10 µM unless noted
The panel holds about 83,000 compounds, 20% with a hit somewhere; the sample as a whole holds those more often.
Give the number; % is assumed, so skip it.

Examples with answers:
NC(=O)C1(N2CCCCC2)CCN(CCCC(=O)c2ccc(F)cc2)CC1 :: -14.7
O=C1C(=O)c2c(nc3ncccn23)-c2ccccc21 :: -50.2
COc1cc(C2NC(c3cc(OC)c(OC)c(OC)c3)C(C#N)(C#N)C2(C#N)C#N)cc(OC)c1OC (stereo not given) :: 110
N#CC1=C(N)Oc2c(ccc3ccccc23)C1c1ccc([N+](=O)[O-])cc1 (stereo not given) :: 76.5
Nc1cc(N)c2cccnc2c1O :: 89

input: Quick one: give measured growth for O=C1Nc2c(ccc(Cl)c2Cl)/C1=C/c1ccc([N+](=O)[O-])cc1
output: 108

input: Determine from records and report growth for COc1cc2nc(-c3ccc(C(F)(F)F)cc3)cc(OCCN3CCC(O)CC3)c2cc1OC
output: 93.8

input: # return recorded growth for input CNC(=O)c1c(NC(=O)c2ccc(C(C)C)cc2)sc2c(CN(C)C)c(O)ccc12
output: 99.3

input: Identify growth associated with the compound CC1(C)[C@H](O)CC[C@]2(C)[C@@H]1CC[C@@]13C[C@@H](CC[C@H]12)[C@@](O)(CO)C3
output: 112

input: Give recorded growth. COc1ccc(-c2nc(SC)nc(N3CCOCC3)c2C#N)cc1
output: 98.5

* * *

// growth lookup, one value per entry
System: TK-10 renal
Assay: NCI-60 one-dose screen, 48 h (100 = growth as untreated, 0 = no growth, -100 = all killed)
Details: 10 µM unless noted
This is part of a sample that, as a whole, favours compounds with a hit. Of some 83,000 tested, about 20% had one in any assay.
Number in %, nothing else.

input: Supply recorded growth for O=S(=O)(NCCCNc1nccc(-c2c(-c3cccc(O)c3)nc3occn23)n1)c1ccc(F)cc1 here.
output: 116

input: Give me measured growth, please, for this compound: O=C(CNCCO)Nc1ccc2ncnc(Nc3ccc(OCc4cccc(F)c4)c(Cl)c3)c2c1
output: 56

input: Provide growth value for the following compound: c1ccc(CCSc2ncnc3nc[nH]c23)cc1
output: 122

input: Please report growth for the following compound: CC(C)Cc1ccc(C(C)C(=O)NCc2c[nH]c3ccc(Cl)cc23)cc1 (stereo unspecified)
output: 107

input: Please report the measured growth for Cc1ccccc1CNc1ccc(N2CCOCC2)cc1
output: 95.3

input: Give growth for Cn1c2c(Cl)c(Cl)ccc2c2cc(N)[nH]c(=O)c21
output: 120

* * *

# reported growth; entries follow
Test system: EKVX NSCLC
Assay: NCI-60 one-dose screen, 48 h (100 = growth as untreated, 0 = no growth, -100 = all killed)
Conditions: 10 µM unless noted
The panel holds about 83,000 compounds, 20% with a hit somewhere; the sample as a whole holds those more often.
The reply should contain only the number, in %.

Study these solved cases before continuing.
O=C(N/N=C/c1cccc(O)c1)c1ccccc1Nc1cccc(C(F)(F)F)c1 :: 69.9
CC(C)C1C2=C(NCCN1C(=O)Cc1ccccc1)C(C)(C)N(Cc1ccccc1)C2=O (stereo unspecified) :: 94.5
Nc1nnc2cc(Cl)ccc2n1 :: 112
CS(=O)(=O)c1ccc(-c2cc3c(oc2=O)-c2ccccc2OC3O)cc1 (stereo unspecified) :: 98.4
CCn1cc(C2NC(=O)c3ccccc3N2)c2cccc(C)c21 (stereo unspecified) :: 29.4

API: the following record is the query input.
input: For the compound CC(Oc1ccc(C(=O)NS(=O)(=O)C(C)(C)C)cc1C(F)(F)F)c1ccc(Oc2ccccc2)cn1 (stereo unspecified) , give its reported growth.
output: 86.5

* * *

In this section we review reported growth values for a set of compounds.
Tested on: ACHN renal
Test: NCI-60 one-dose screen, 48 h (100 = growth as untreated, 0 = no growth, -100 = all killed)
Details: 10 µM unless noted
This is part of a sample that, as a whole, favours compounds with a hit. Of some 83,000 tested, about 20% had one in any assay.
Form entry: value (%) — number only.

The examples below pair each entry with its known result.
O=C1NC(=S)NC(=O)C1=Cc1cccc(C=C2C(=O)NC(=S)NC2=O)c1 :: 113
O=S(=O)(NCCCNc1nccc(-c2c(-c3cccc(O)c3)nc3occn23)n1)c1ccc(F)cc1 :: 79.1
Clc1nc(Nc2ccccc2)nc(Nc2ccccc2)n1 :: 98.9
N#CSCC1CC(O)(c2ccccc2)C(c2ccccc2)C(c2ccc(F)cc2)O1 (stereo not given) :: 25.2
O=C1CCCCCCCCC(O)C(O)CCCC(c2cccs2)O1 (stereo not given) :: 94.8
Clc1ccc(C2CC(c3cccc(Nc4ccncc4)c3)=NN2c2ccccc2)cc1 (stereo not given) :: 78.1
CCn1cc(C2NC(=O)c3ccccc3N2)c2cccc(C)c21 (stereo not given) :: 26.8
COc1ccc(/C(C)=N/NC(=O)CSc2nc3ccccc3c(=O)n2Cc2ccc(S(N)(=O)=O)cc2)c(OC)c1 :: 105

input: Provide measured growth on ACHN renal for CCCCCCOc1ccc(C(=N)N(CCCC)CCCC)c2ccccc12 please.
output: -92

input: Fill: growth (ACHN renal) for this compound COc1c(Cl)cc(Cl)c2ccc(C=C3C(=O)NC(=S)NC3=O)nc12
output: 101

* * *

Tested on: UO-31 renal
Assay: NCI-60 one-dose screen, 48 h (100 = growth as untreated, 0 = no growth, -100 = all killed)
Conditions: 10 µM unless noted
Compounds without any hit were thinned out: in the full panel of roughly 83,000, 20% have a hit.
Reported growth is given for each of the following molecules.
Report the value in % with no unit label.

Below, 5 molecules whose answers are already recorded.
COc1cc2nnn3c4ncccc4c(N=O)c3c2cc1OC :: -6.2
COc1ccc(-n2cc(-c3cc(OC)c(OC)c(OC)c3)n(C(C)=O)c2=O)cc1 :: 77.2
COc1ccc2c(/C=C3/C(=O)NC(=S)NC3C)cc(=O)oc2c1 (stereo not drawn) :: 88.3
COC(=O)N[C@H]1CCc2cc(OC)c(OC)c(OC)c2-c2ccc(SC)c(=O)cc21 :: 44.5
COC(=O)Nc1ccc(NC(=O)OC)cc1 :: 87.6

input: Answer with growth of NC(=O)c1cccc(-c2cc(C(N)=O)ccc2Cl)c1 measured for UO-31 renal.
output: 45.7

input: Provide UO-31 renal growth reading for CC1NC(=S)NC(=O)/C1=C/c1cc(=O)oc2c1ccc1ccccc12 (stereo not drawn) .
output: 73.6

input: Jot down growth (UO-31 renal) of O=C(N/N=C/c1ccncc1)c1ccccc1Nc1cccc(C(F)(F)F)c1 .
output: 60.9

input: Tell me its growth on UO-31 renal: N#Cc1c(Nc2ccccc2)nn2cc(-c3nc4ccccc4s3)c(N)nc12
output: 83.4

input: Enter recorded growth with UO-31 renal for COc1ccc(-c2ncc(-c3ccccc3)[nH]2)cc1OC here.
output: 109

input: Provide growth, tested on UO-31 renal, for CCOC(=O)c1c(SC)nn(-c2cc(=O)[nH]c3ccc(Br)cc23)c1N .
output: 81

input: Fill: growth (UO-31 renal) for this molecule Clc1nc(Cl)c2ncn(CCOCCn3cnc4c(Cl)nc(Cl)nc43)c2n1
output: -95.4

* * *

Test system: SK-MEL-28 melanoma
Assay: NCI-60 one-dose screen, 48 h
Conditions: 10 µM unless noted
About 83,000 compounds went through this panel and 20% of them were active in at least one assay; those are over-represented in the sample as a whole. Active and inactive are the calls of the source. How the source made its calls: active means growth percent below 10; inactive means the rest.
Your response should consist of one outcome taken from class 1 = active, class 0 = inactive

Some solved cases for reference:
C=C1C(=O)O[C@H]2[C@H]1CC/C(COC(=O)CCCCCC(=O)OC/C1=C/CC[C@@]3(C)O[C@H]3[C@H]3OC(=O)C(=C)[C@@H]3CC1)=C\CC[C@@]1(C)O[C@@H]21 :: class 0
Cc1cccc(Oc2ccc(Nc3ncnc4ccc(NC(=O)CNCCO)cc34)cc2Cl)c1 :: class 0
Cn1c2c(Cl)c(Cl)ccc2c2cc(N)[nH]c(=O)c21 :: class 0
Clc1ccc(C2CC(c3cccc(Nc4ccncc4)c3)=NN2c2ccc(Cl)cc2)cc1 (stereo not drawn) :: class 1
CC(=O)OCC(=O)[C@@]1(O)CC[C@H]2[C@@H]3CC(=C(Br)Br)C4=CC(=O)CC[C@]4(C)[C@H]3C(=O)C[C@@]21C :: class 0
O=C1Nc2c(ccc(Cl)c2Cl)/C1=C/c1ccc(O)cc1 :: class 0
NC(=O)CN1CCN(c2ccccc2Cl)CC1 :: class 0
O=C1C(=O)c2c(nc3ncccn23)-c2ccccc21 :: class 1

input: Per the records of this test, what outcome belongs to C[C@]12CCc3nc(Nc4cccc(O)c4)sc3C1=CC[C@@H]1[C@@H]2CC[C@]2(C)/C(=N\NC(N)=S)CC[C@@H]12 ?
output: class 1

input: Recorded call for Cn1c(=O)c2[nH]c(CCCc3nc4c([nH]3)c(=O)n(C)c(=O)n4C)nc2n(C)c1=O ?
output: class 0

input: So what was the verdict on CC(=O)c1cccc(NS(=O)(=O)c2cccc(C(=O)Nc3ccc(Br)cc3)c2)c1 in this test?
output: class 0

input: Dear colleague, could you share the recorded outcome for O=S(=O)(NCCCNc1nccc(-c2c(-c3ccccc3)nc3occn23)n1)c1ccc(Cl)cc1 when you have a moment?
output: class 0

input: Each molecule tested received a call. Report the one for NC(=O)c1ccc[n+](CC(=O)N2CCN(c3cc4c(cc3F)c(=O)c(C(=O)O)cn4C3CC3)CC2)c1 .
output: class 0

input: Which result was noted for this molecule in the test: CC1(C)CN(c2cnc(C(=O)Nc3cc(F)cc4cccnc34)cn2)CCN1
output: class 0

input: Given CCn1ccnc1C(=O)/C=C/c1ccc(CC(=O)Nc2ccc(F)cc2)cc1 , state the outcome it received in this test.
output: class 0

input: What is the recorded call for this molecule in the test? COc1ccc(Nn2c(SCC(=O)Nc3nc(-c4ccc(Cl)cc4)cs3)nc(C)c2C)cc1
output: class 0

input: Please let me know the test result on file for C=CCn1c(SCC(=O)Nc2ccc(C(=O)/C=C/c3cc(OC)c(OC)c(OC)c3)cc2)nnc1-c1cc(-c2ccc(S(C)(=O)=O)cc2)nc2ccccc12 .
output: class 0

input: What outcome does the record of this test show for CCN(CC)CCSCCCNc1c(C)cnc2cc(Cl)ccc12 ?
output: class 0
